# System: L1210 leukemia ip in BDF1 mice, survival T/C
# measurement-notes: NCI In Vivo Anticancer Drug Screen. Data for tumor model L1210 Leukemia (intraperitoneal) in B6D2F1 (BDF1) mice
# condition-info: endpoint: mean survival time; dose: 100.0 mg/kg/injection; schedule: Q01DX001 (ip); vehicle: Klucel (hydroxypropylcellulose) (HPC); higher = longer survival
Toxic doses and inconclusive results are not listed.
The compounds listed here are annotated with their T/C.

> print(dat)
                                    compound             value
 1  CN1CN(c2ccccc2)C2(CCN(c3nc4ccccc4s3)CC2)C1=O   91 % of control
 2  CCOC(=O)/C=C(\c1ccccc1)c1ccc([N+](=O)[O-])cc1   94 % of control
 3  OC(c1ccccc1)c1nnc(C(O)c2ccccc2)nn1 (configuration not stated)   92 % of control
 4  CC1(C)N=C(N)N=C(N)N1c1ccc(CCNC(=O)c2ccc(S(=O)(=O)F)cc2)cc1   90 % of control
 5             CCCNS(=O)(=O)c1cccc(C(N)=S)c1  101 % of control
 6  O=C1C(c2ccccc2)CN1CC1CCCCC1 (configuration not stated)   98 % of control
 7  CCOC(=O)C(O)(CC)c1ccncc1Br (configuration not stated)  102 % of control
 8                   CSc1nccc(NN=C2CCCCC2)n1   98 % of control
 9  CCCCCCCCCCCCCCCCN(C(C)c1ccccc1)S(=O)(=O)c1ccc(OC)c(N)c1 (configuration not stated)   93 % of control
10  ClC1(Cl)C2CCC3(CC21)OCCO3 (configuration not stated)  114 % of control

Per the records, this compound ( Cc1ccccc1N=Cc1cc(Cl)ccc1O ) has T/C equal to 97 % of control

Per the records, this compound ( CCOC(=O)c1[nH]c2ccsc2c1CN1CCCCC1 ) has T/C equal to 101 % of control

====

# Tested on: L1210 leukemia ip in BDF1 mice, survival T/C
# measurement-notes: NCI In Vivo Anticancer Drug Screen. Data for tumor model L1210 Leukemia (intraperitoneal) in B6D2F1 (BDF1) mice
# condition-info: endpoint: mean survival time; dose: 400.0 mg/kg/injection; schedule: Q01DX001 (ip); vehicle: carboxymethylcellulose (CMC); higher = longer survival
Inconclusive results and toxic doses are left out.
The molecules listed here are annotated with their T/C.

These recorded examples may help you get a feel for the data.
> print(dat)
                                   molecule             value
1  Cc1ccc(S(=O)(=O)N2CCCC(O)c3ccccc32)cc1 (stereo unspecified)  116 % of control
2                COc1ccc(C(=O)CCCC(=O)O)cc1  105 % of control
3  CCOC(=O)c1ccc(NS(=O)(=O)c2ccc(Cl)cc2[N+](=O)[O-])cc1  103 % of control

Per the records, this molecule ( Cc1nnc(S(=O)(=O)c2ccc(N=Nc3c(N)nc(N)nc3N)cc2)s1 ) has T/C equal to 94 % of control

Per the records, this molecule ( CCN(c1ccc(Br)cc1)c1ccc(Br)cc1 ) has T/C equal to 105 % of control

Per the records, this molecule ( C[n+]1c(/C=C/c2ccc(O)c3ncccc23)[se]c2ccccc21 ) has T/C equal to 105 % of control

====

The molecules listed here are annotated with their T/C.
# Test system: L1210 leukemia ip in BDF1 mice, survival T/C
# measurement-notes: NCI In Vivo Anticancer Drug Screen. Data for tumor model L1210 Leukemia (intraperitoneal) in B6D2F1 (BDF1) mice
# condition-info: endpoint: mean survival time; dose: 25.0 mg/kg/injection; schedule: Q01DX009 (ip); vehicle: saline; higher = longer survival
Inconclusive results and toxic doses are left out.

Per the records, this molecule ( C=C(Br)CNC(C)=O ) has T/C equal to 106 % of control

Per the records, this molecule ( COC(=O)C1=C(NC(=O)Nc2ccc(Cl)cc2)OC(C)(C)C1c1ccc(Cl)cc1 (stereo not drawn) ) has T/C equal to 90 % of control

Per the records, this molecule ( CN1CN(C)CN(C)C1 ) has T/C equal to 105 % of control

====

# Test system: L1210 leukemia ip in BDF1 mice, survival T/C
# measurement-notes: NCI In Vivo Anticancer Drug Screen. Data for tumor model L1210 Leukemia (intraperitoneal) in B6D2F1 (BDF1) mice
# condition-info: endpoint: mean survival time; dose: 50.0 mg/kg/injection; schedule: Q04DX002 (ip); vehicle: saline with Tween-80; higher = longer survival
Inconclusive results and toxic doses are left out.
quantity-name: T/C

compound	T/C
O=C(CCl)OCCCl	103 % of control
Cc1nc(N)sc1C	102 % of control
C[N+](C)(C)CCOC(=O)c1ccc(CCl)cc1	102 % of control

Per the records, this compound ( CC1(C)C2CCC1(C)C(C(=O)C(F)(F)F)C2=O.CC1(C)C2CCC1(C)C(C(=O)C(F)(F)F)C2=O.CC1(C)C2CCC1(C)C(C(=O)C(F)(F)F)C2=O.[Eu] (centres undefined) ) has T/C equal to 105 % of control

====

# Test system: L1210 leukemia ip in BDF1 mice, survival T/C
# measurement-notes: NCI In Vivo Anticancer Drug Screen. Data for tumor model L1210 Leukemia (intraperitoneal) in B6D2F1 (BDF1) mice
# condition-info: endpoint: mean survival time; dose: 200.0 mg/kg/injection; schedule: Q01DX001 (ip); vehicle: saline; higher = longer survival
Inconclusive results and toxic doses are left out.
The molecules listed here are annotated with their T/C.

These recorded examples may help you get a feel for the data.
> print(dat)
                                   molecule  quantity.name             value
1  C1CSC2(CCC(C3CCC4(CC3)SCCS4)CC2)S1 (centres undefined)            T/C   91 % of control
2                   CCOC(=O)NC(CC)NC(=O)OCC            T/C  103 % of control

Measured on L1210 leukemia ip in BDF1 mice, survival T/C, CC(=O)N/N=C(/C)C1CC2CCC1C2 (centres undefined) has a documented T/C of 106 % of control

Measured on L1210 leukemia ip in BDF1 mice, survival T/C, CC(=O)c1ccc(O)c(CN(C2CCCCC2)C2CCCCC2)c1O has a documented T/C of 93 % of control

Measured on L1210 leukemia ip in BDF1 mice, survival T/C, Cc1c(Cl)nc(Cl)nc1Cl has a documented T/C of 104 % of control

Measured on L1210 leukemia ip in BDF1 mice, survival T/C, COC(=O)/C=C(\C)Nc1cc(OC)ccc1OC has a documented T/C of 87 % of control

Measured on L1210 leukemia ip in BDF1 mice, survival T/C, c1ccc2c(c1)CCCN2 has a documented T/C of 89 % of control

Measured on L1210 leukemia ip in BDF1 mice, survival T/C, Cc1ccc([P+](=O)O)cc1Cl has a documented T/C of 93 % of control

====

# Test system: L1210 leukemia ip in BDF1 mice, survival T/C
# measurement-notes: NCI In Vivo Anticancer Drug Screen. Data for tumor model L1210 Leukemia (intraperitoneal) in B6D2F1 (BDF1) mice
# condition-info: endpoint: mean survival time; dose: 25.0 mg/kg/injection; schedule: Q01DX009 (ip); vehicle: saline with Tween-80; higher = longer survival
Inconclusive results and toxic doses are left out.
quantity-name: T/C

These recorded examples may help you get a feel for the data.
> print(dat)
                               smiles.entry             value
1            O=C(Nc1nc(Cl)nc(Cl)n1)N1CCOCC1  113 % of control
2  O=C(CC1(Cl)C(F)(F)C(F)(F)C1(F)F)c1ccccc1   94 % of control

In the following, a different molecule is considered.
Per the records, this molecule ( Cc1ccc([N+](=O)[O-])cc1NC(=O)NNC(=O)CNC(=O)Nc1ccc(F)cc1 ) has T/C equal to 94 % of control

====

The molecules listed here are annotated with their T/C.
# System: L1210 leukemia ip in BDF1 mice, survival T/C
# measurement-notes: NCI In Vivo Anticancer Drug Screen. Data for tumor model L1210 Leukemia (intraperitoneal) in B6D2F1 (BDF1) mice
# condition-info: endpoint: mean survival time; dose: 400.0 mg/kg/injection; schedule: Q04DX002 (ip); vehicle: saline with Tween-80; higher = longer survival
Toxic doses and inconclusive results are not listed.

These recorded examples may help you get a feel for the data.
> print(dat)
                                   molecule             value
1            O=S(=O)(c1ccccc1)n1ccc2ccccc21   97 % of control
2                    O=S1(=O)CN2C=CC=CC2=N1  109 % of control
3         CCS(=O)(=O)/C=C/c1ccc(NC(C)=O)cc1   91 % of control
4  CN(C)c1ccc(/C=N/NC(=O)C(O)C(O)C(O)C(O)CO)c(Cl)c1 (centres undefined)   88 % of control
5  OCC1C(CO)C2CC1C1N=NN(c3ccccc3)C21 (centres undefined)   93 % of control

Measured on L1210 leukemia ip in BDF1 mice, survival T/C, Cc1ccc(C(=O)/C=C/c2ccc(Cl)c(Cl)c2)c(C)c1 has a documented T/C of 91 % of control
